- target_entity: CDK4 (Homo sapiens, UniProt P11802+Q16531)
- measurement_protocol: CDK4 percentage degradation in Calu-1 cells (Table 6)
- Type: cell-based
- Set-up: Cells that express cyclin D1-3 and CDK4/6 proteins were treated with heterobifunctional compounds; endogenous in cells; host or cells: Calu-1
- condition_set: 200 nM, 16 hours
- Sequence (P11802 2-303 limits assumed): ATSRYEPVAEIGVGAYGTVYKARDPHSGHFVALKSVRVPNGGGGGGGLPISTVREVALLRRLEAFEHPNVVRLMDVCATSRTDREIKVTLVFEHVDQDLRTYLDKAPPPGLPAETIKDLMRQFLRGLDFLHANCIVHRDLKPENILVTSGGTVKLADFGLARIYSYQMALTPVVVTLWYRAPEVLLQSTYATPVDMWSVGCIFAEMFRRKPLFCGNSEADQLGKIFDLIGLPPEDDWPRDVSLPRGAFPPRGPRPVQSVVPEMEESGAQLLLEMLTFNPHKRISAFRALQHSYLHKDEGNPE
- Sequence (P24385 whole entry partner): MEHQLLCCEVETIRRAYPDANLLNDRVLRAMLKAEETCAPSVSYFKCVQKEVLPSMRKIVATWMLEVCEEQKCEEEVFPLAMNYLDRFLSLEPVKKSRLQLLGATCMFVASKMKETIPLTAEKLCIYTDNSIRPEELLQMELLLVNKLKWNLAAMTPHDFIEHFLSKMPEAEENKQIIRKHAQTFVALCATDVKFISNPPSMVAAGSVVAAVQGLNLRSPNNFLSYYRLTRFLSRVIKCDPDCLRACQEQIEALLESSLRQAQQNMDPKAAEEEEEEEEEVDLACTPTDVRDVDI
- Sequence (Q16531 2-1140 limits assumed): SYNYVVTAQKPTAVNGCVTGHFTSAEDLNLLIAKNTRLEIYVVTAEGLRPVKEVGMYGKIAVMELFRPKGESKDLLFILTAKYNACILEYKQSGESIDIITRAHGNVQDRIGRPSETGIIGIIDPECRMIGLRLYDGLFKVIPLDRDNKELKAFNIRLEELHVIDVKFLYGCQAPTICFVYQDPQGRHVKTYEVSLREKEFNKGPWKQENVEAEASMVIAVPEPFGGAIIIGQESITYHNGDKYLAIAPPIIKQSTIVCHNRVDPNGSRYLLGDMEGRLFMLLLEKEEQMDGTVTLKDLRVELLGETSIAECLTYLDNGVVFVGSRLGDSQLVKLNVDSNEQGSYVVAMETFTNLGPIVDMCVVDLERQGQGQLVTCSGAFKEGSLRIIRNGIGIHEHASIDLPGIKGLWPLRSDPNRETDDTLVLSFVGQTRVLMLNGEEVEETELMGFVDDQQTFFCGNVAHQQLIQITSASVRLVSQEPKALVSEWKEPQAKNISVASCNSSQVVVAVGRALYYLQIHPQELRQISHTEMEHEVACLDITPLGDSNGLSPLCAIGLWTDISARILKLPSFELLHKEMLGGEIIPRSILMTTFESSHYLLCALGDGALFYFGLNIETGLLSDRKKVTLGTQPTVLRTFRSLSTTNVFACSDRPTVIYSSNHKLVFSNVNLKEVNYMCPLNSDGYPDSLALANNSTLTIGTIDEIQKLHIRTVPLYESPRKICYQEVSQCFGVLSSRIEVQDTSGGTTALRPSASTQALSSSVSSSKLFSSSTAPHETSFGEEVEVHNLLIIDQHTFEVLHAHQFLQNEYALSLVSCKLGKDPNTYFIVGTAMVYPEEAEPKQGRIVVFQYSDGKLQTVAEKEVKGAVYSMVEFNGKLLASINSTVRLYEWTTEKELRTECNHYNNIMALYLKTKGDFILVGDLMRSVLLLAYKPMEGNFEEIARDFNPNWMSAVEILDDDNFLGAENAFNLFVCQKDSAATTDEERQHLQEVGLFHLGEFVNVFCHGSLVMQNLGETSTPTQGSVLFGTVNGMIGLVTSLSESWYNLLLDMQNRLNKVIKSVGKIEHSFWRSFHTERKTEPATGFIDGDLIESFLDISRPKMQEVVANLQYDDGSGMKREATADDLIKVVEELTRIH
property_measured: inhibition at 0.2 µM

[
  {
    "compound": "CNc1ccc(C(=O)Nc2ccc(N(C)C)nn2)c(NC2CC3(C2)CC(C(=O)N2CCN(c4ccc(Nc5ncc6c(C)c(C(C)=O)c(=O)n(C7CCCC7)c6n5)nc4)CC2)C3)n1 (stereo not drawn) [CPD-140]",
    "inhibition at 0.2 µM": "50 to 80%"
  },
  {
    "compound": "CNc1ccc(C(=O)Nc2cc(C(C)C)n(C)n2)c(NC2CC3(CC(NC(=O)CN4CCN(c5ccc(Nc6ncc7c(C)c(C(C)=O)c(=O)n(C8CCCC8)c7n6)nc5)CC4)C3)C2)n1 (stereo not drawn) [CPD-95]",
    "inhibition at 0.2 µM": "< 30%"
  }
]

Would you kindly look at the next entry?
Please fill in: inhibition at 0.2 µM reported for CNc1ccc(C(=O)Nc2cccc(C)n2)c(NC[C@H]2CC[C@H](NC(=O)CN3CCN(c4ccc(Nc5ncc6c(C)c(C(C)=O)c(=O)n(C7CCCC7)c6n5)nc4)CC3)CC2)n1 [CPD-126] = 50 to 80%

---

The following compounds are shown together with reported activity at 0.01 µM values.
- target_entity: CDK4 (Homo sapiens, UniProt P11802+Q16531)
- measurement_protocol: HiBiT detection of HiBiT-tagged CDK4 protein level in MCF7 cells, 16 hours (Table 8)
- Assay type: cell-based
- Set-up: expressed in transfected cells; host or cells: MCF7
- condition_set: 10 nM, MCF7 cells stably expressing HiBiT tagged target proteins, read-out: % CDK4 Relative Level (10 nM)
- Sequence (P11802 whole entry): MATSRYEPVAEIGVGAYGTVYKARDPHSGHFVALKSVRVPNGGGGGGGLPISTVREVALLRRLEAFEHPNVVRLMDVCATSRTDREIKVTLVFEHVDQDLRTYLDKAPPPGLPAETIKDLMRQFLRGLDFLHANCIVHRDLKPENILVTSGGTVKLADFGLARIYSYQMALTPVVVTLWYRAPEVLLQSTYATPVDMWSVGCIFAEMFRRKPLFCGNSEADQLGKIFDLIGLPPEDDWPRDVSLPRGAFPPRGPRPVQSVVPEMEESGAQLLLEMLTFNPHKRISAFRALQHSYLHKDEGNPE
- Sequence (P24385 whole entry partner): as the sequence (P24385 whole entry partner) above
- Sequence (Q16531 2-1140 limits assumed): as the sequence (Q16531 2-1140 limits assumed) above

Use the examples below as a reference point.
[
  {
    "compound": "CNc1ccc(C(=O)Nc2ccc(N(C)C)nn2)c(NCCC(=O)N2CCN(c3ccc(Nc4ncc(F)c(-c5cc(F)c6nc(C)n(C(C)C)c6c5)n4)nc3)CC2)n1",
    "target_entity": "CDK4 (Homo sapiens, UniProt P11802+Q16531)",
    "activity at 0.01 µM": "> 85%"
  },
  {
    "compound": "CNc1ccc(C(=O)Nc2ccc(N(C)C)nn2)c(NCCCCCC(=O)N2CCN(c3ccc(Nc4ncc5cc6n(c5n4)C4(CCCCC4)CNC6=O)nc3)CC2)n1",
    "target_entity": "CDK4 (Homo sapiens, UniProt P11802+Q16531)",
    "activity at 0.01 µM": "55 to 85%"
  },
  {
    "compound": "CC(=O)c1c(C)c2cnc(Nc3ccc(N4CCN(CC(=O)NCC5CC(Nc6nc(NC(C)C)ccc6C(=O)Nc6cc(C)on6)C5)CC4)cn3)nc2n(C2CCCC2)c1=O (centres unmarked)",
    "target_entity": "CDK4 (Homo sapiens, UniProt P11802+Q16531)",
    "activity at 0.01 µM": "55 to 85%"
  },
  {
    "compound": "CCc1ccc(C(=O)Nc2ccc(N(C)C)nn2)c(NC2CCC3(CCN(C(=O)CN4CCN(Cc5ccc(Nc6ncc7c(C)c(C(C)=O)c(=O)n(C8CCCC8)c7n6)nc5)CC4)C3)C2)n1 (centres unmarked)",
    "target_entity": "CDK4 (Homo sapiens, UniProt P11802+Q16531)",
    "activity at 0.01 µM": "55 to 85%"
  }
]

Would you kindly look at the next entry?
Please fill in: activity at 0.01 µM reported for CC(=O)c1c(C)c2cnc(Nc3ccc(CN4CCN(CC(=O)N(C)C5CC6(CC(Nc7nc(NC(C)C)ccc7C(=O)Nc7ccc(N(C)C)nn7)C6)C5)CC4)cn3)nc2n(C2CCCC2)c1=O (centres unmarked) = 55 to 85%
